# System: U-251
# experiment: NCI tumour cell line growth inhibition, 48 h
Activity calls are given as the source filed them. Cut-off read from the data, not from the text of the source: active = GI50 up to about 1.1 µM and inactive = higher.
GI50 by entry:
outcome-measure: GI50

In [3]: df
Out[3]:
                                   compound               result
0  CC(=O)NC1=C(NCc2ccc(Cl)cc2)C(=O)c2ccccc2C1=O    6.7 µM (inactive)
1  Cn1c(=O)c2[nH]c(C3CC(=O)CC(c4nc5c([nH]4)c(=O)n(C)c(=O)n5C)N3)nc2n(C)c1=O (stereo not drawn)     91 µM (inactive)
2  COc1ccc(C2SCC(=O)N2NC2=NC(=O)CC(=O)N2)cc1 (stereo not drawn)  > 100 µM (inactive)
